Exercise: state measured IC50 (read off the curve) for each of the binders provided.
Molecular target: T1, recombinant human CD70 (Flag-TNC-CD70) (human, UniProt P32970 39-193)
T1 construct: extracellular domain; Captured by anti-Flag mAb in ELISA; as 'recombinant human CD70' immobilised on Biacore CM5 chips; TNC is for trimerisation; also called recombinant CD70; human recombinant CD70; not shown: Flag tag and TNC trimerisation domain
T1 sequence (looked up): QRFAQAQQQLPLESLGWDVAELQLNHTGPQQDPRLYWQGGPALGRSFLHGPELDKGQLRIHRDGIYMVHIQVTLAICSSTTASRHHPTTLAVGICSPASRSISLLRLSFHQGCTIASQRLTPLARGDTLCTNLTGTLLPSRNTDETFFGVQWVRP
Assay: inhibition ELISA: Flag-TNC-CD70 captured by anti-Flag mAb, Fab titrated, remaining binding of CD27-Fc detected

Below, each entry is followed by its recorded IC50 (read off the curve) result.
24F2 Fab (Fab, V domains shown, Llama-derived Fab) VH: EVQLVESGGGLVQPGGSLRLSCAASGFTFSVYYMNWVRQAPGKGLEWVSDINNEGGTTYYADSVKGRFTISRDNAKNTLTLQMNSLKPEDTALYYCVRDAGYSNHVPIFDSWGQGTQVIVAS VL: QSALTQPSAVSVSLGQTARITCRGDTLRNYHANWYRQKPGQAPVLVIYGDDIRPSGIPERFSGSRLGGTATLTVSGAQAEDEADYYCQSSDSSGYRVVFGGGTKLTVLG
~0.04 µg/mL
5F4 Fab (Fab, V domains shown, Llama-derived Fab) VH: EVQVQESGGGLVHPGGSLKLSCAASGFTFDTYAMSWVRQAPGKGLEWVSAISWSGGETFYAESMKGRFTISRNNAKNTLYLQMNSLKSEDTAVYYCARGMGLAEGLTDWGQGTQVTVSS VL: QAVVTHPPSLSASPGSSVRLTCTLISGDNIGGYDISWYQQKTGSPPRYLLYYYSDSYKHQSSGVPSRFSGSKDASANAGLLLISGLQSEDEADYYCSAYKSGSYKAPVFGGGTHLTVLG
~0.2 µg/mL

Please report the recorded IC50 (read off the curve) for 9B2 Fab (Fab, V domains shown, Llama-derived Fab) VH: QLQVVESGGGLMQPGGSLRLSCAASGFTFSGSAMSWVRQAPGKGLEWVSSIYSHSMYTYYADSVKSRFTISTDNAKNTLYLQMNSLKPDDTAVYYCAASSDYEGLFVSWGQGTQVTVSS VL: QAVLTQPPSLSASPGSSVRLTCTLNSANSVGSYDISWYQQKAGSPPRYLLYYYSDSLSHQGSGVPSRFSGSTDASANAGLLLISGLQPEDEADYYCSAYNRGSHVFGGGTKLTVLG . ~4 nM
